molecular target: ABCG2 (Homo sapiens, UniProt Q9UNQ0); construct: ABCG2-containing membrane vesicles; experiment: vanadate-sensitive ATPase assay in ABCG2 membrane vesicles (colorimetric phosphate); supported by [3H]-mitoxantrone efflux inhibition in cells
Sequence (Q9UNQ0 whole entry): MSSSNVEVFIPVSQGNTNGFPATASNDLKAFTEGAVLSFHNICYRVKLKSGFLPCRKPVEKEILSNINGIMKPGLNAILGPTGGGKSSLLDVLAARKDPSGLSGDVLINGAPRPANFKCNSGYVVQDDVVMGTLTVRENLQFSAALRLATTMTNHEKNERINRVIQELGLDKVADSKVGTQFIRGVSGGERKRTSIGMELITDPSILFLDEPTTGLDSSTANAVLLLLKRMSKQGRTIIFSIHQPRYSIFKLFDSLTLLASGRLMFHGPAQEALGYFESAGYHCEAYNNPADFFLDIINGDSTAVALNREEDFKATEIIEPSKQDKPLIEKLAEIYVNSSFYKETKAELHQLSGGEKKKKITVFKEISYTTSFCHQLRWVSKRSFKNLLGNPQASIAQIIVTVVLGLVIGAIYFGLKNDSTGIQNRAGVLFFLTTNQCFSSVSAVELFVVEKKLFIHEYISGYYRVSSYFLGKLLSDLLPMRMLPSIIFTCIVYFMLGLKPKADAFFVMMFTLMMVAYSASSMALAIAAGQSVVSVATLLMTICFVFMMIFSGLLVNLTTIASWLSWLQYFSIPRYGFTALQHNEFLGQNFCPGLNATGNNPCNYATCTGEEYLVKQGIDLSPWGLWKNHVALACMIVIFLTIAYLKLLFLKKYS
value_kind: IC50

# input Return value of IC50 for input `N#Cc1ccc(-c2cnc3ccc(-c4ccc(C(=O)N5CCOCC5)cc4)cn23)cc1` , no commentary.
# output ~2000 nM
